Record form. Attribute: normalized RNA/DNA level with ligand (log10). Fill in for each entry.
B1: library; a variant is named by its letters at N, in order (parent)
chain: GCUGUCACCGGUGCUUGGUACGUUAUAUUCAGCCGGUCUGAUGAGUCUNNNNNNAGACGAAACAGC

variants of: B1; assay: normalized RNA/DNA level with ligand (relative to sTRSVctl = 100) (log10 (% of sTRSVctl)); HEK293T overexpressing SLC46A1; ligand concentration (+) RNA-Seq: 6 mM; higher = less ribozyme self-cleavage, higher mRNA level; details: with (6R,S)-folinic acid; ligand present: yes

Solved entries (count: 2):
{"primarySequence": "GCUGUCACCGGUGCUUGGUACGUUAUAUUCAGCCGGUCUGAUGAGUCUUCCCAGAGACGAAACAGC [UCCCAG]", "experimentalResult": 2.04}
{"primarySequence": "GCUGUCACCGGUGCUUGGUACGUUAUAUUCAGCCGGUCUGAUGAGUCUUAACUGAGACGAAACAGC [UAACUG]", "experimentalResult": 2}

Dear colleague, could you please provide normalized RNA/DNA level with ligand (log10) for the variants listed below?
1. GCUGUCACCGGUGCUUGGUACGUUAUAUUCAGCCGGUCUGAUGAGUCUCCAUUCAGACGAAACAGC [CCAUUC]
2. GCUGUCACCGGUGCUUGGUACGUUAUAUUCAGCCGGUCUGAUGAGUCUGUCUCGAGACGAAACAGC [GUCUCG]
3. GCUGUCACCGGUGCUUGGUACGUUAUAUUCAGCCGGUCUGAUGAGUCUCUGACUAGACGAAACAGC [CUGACU]
4. GCUGUCACCGGUGCUUGGUACGUUAUAUUCAGCCGGUCUGAUGAGUCUUUUGCAAGACGAAACAGC [UUUGCA]

Response:
[2.03, 2, 2, 1.99]
